Value source: patent US4442044A

system: Lambsquarters; assay: post-emergent herbicidal activity, greenhouse; format: in vivo; details: Table II, 4 WAT, 5.6 kg/h
Please go through the items and note down their post-emergent herbicidal activity index.

Example entries and their recorded answers appear below.
compound=CCOC(=O)CNCP(=O)(O)OCC(Cl)(Cl)Cl recorded_value="3 (75-99% control)"
compound="CCOC(=O)CNCP(=O)(OC(C)CC(=O)OCC)OC(C)CC(=O)OCC (stereo not shown)" recorded_value="1 (25-49% control)"
compound=CCOC(=O)CNCP(=O)(OCCN1CCCC1)OCCN1CCCC1 recorded_value="3 (75-99% control)"

Give one value of post-emergent herbicidal activity index per listed compound.
1. CCOC(=O)CNCP(=O)(O)OC(C)C(=O)OC (stereo not shown)
2. CCOC(=O)CNCP(=O)(O)OC(C)C#N (stereo not shown)
3. CCOC(=O)CNCP(=O)(OCC1COC(C)(C)O1)OCC1COC(C)(C)O1 (stereo not shown)
4. CCOCCOC(=O)CNCP(=O)(O)OC(C)C#N (stereo not shown)
5. CCCCCOC(=O)CNCP(=O)(O)OC(C)C#N (stereo not shown) [Example 6, hemihydrate]
6. CCOC(=O)CNCP(=O)(O)OC(C#N)CC (stereo not shown)
7. CC(C#N)OP(=O)(O)CNCC(=O)OCCCl (stereo not shown)

Result ::
1: 1 (25-49% control); 2: 4 (100% control); 3: 0 (0-24% control); 4: 4 (100% control); 5: 4 (100% control); 6: 4 (100% control); 7: 2 (50-74% control)

---

Please go through the items and note down their post-emergent herbicidal activity index.
Tested on: Wheat
Assay: post-emergent herbicidal activity, greenhouse
Type: in vivo
Settings: Table II, 4 WAT, 0.28 kg/h
Text: A good grade of top soil is placed in aluminum pans having holes in the bottom and compacted to a depth of 0.95 to 1.27 cm. from the top of the pan. […] The pans are returned to the greenhouse and watered as before and the injury to the plants as compared to the control is observed at approximately two and four weeks as indicated in the tables under WAT and the results recorded. […]

compound="CCOC(=O)CNCP(=O)(O)OC(C)C#N (stereo not shown)" measured_attribute="post-emergent herbicidal activity index" recorded_value="1 (25-49% control)"
compound="CCCCCOC(=O)CNCP(=O)(O)OC(C)C#N (stereo not shown) [Example 6, hemihydrate]" measured_attribute="post-emergent herbicidal activity index" recorded_value="2 (50-74% control)"
compound=CCOC(=O)CNCP(=O)(O)OCC(Cl)(Cl)Cl measured_attribute="post-emergent herbicidal activity index" recorded_value="3 (75-99% control)"

Give one value of post-emergent herbicidal activity index per listed compound.
1. CC(C#N)OP(=O)(O)CNCC(=O)OCCCl (stereo not shown)
2. CC(C#N)OP(=O)(O)CNCC(=O)OCc1ccccc1 (stereo not shown)
3. CCOC(=O)CNCP(=O)(OC(C)C#N)OC(C)C#N (stereo not shown)
4. CCOCCOC(=O)CNCP(=O)(O)OC(C)C#N (stereo not shown)

Result ::
1: 3 (75-99% control); 2: 1 (25-49% control); 3: 1 (25-49% control); 4: 2 (50-74% control)

---

test system: Yellow Nutsedge; assay: post-emergent herbicidal activity, greenhouse; type: in vivo; conditions: Table I, 4 WAT, 56.0 kg/h
measured_attribute: post-emergent herbicidal activity index

compound=CCOC(=O)CNCP(=O)(OC(C)(C)C#N)OC(C)(C)C#N measured_attribute="post-emergent herbicidal activity index" recorded_value="0 (0-24% control)"

Give one value of post-emergent herbicidal activity index per listed compound.
1. CCOC(=O)CNCP(=O)(OCC1COC(C)(C)O1)OCC1COC(C)(C)O1 (centres unmarked)
2. CCOC(=O)CNCP(=O)(OCc1ccco1)OCc1ccco1
3. CCOC(=O)CNCP(=O)(O)OCC(Cl)(Cl)Cl
4. CCOC(=O)CNCP(=O)(OC(CC(=O)OCC)C(=O)OCC)OC(CC(=O)OCC)C(=O)OCC (centres unmarked)

Result ::
2 (50-74% control)
1 (25-49% control)
1 (25-49% control)
1 (25-49% control)

---

system: Panicum Spp; assay: post-emergent herbicidal activity, greenhouse; format: in vivo; settings: Table II, 4 WAT, 5.6 kg/h
Please go through the items and note down their post-emergent herbicidal activity index.

Give one value of post-emergent herbicidal activity index per listed compound.
1. CCOC(=O)CNCP(=O)(O)OC(C)C(=O)OC (stereo not shown)
2. CCOC(=O)CNCP(=O)(O)OCC(Cl)(Cl)Cl
3. CCOC(=O)CNCP(=O)(OC(C)CC(=O)OCC)OC(C)CC(=O)OCC (stereo not shown)

Result ::
1. 2 (50-74% control)
2. 4 (100% control)
3. 1 (25-49% control)

---

Please go through the items and note down their post-emergent herbicidal activity index.
test system: Soybean; test: post-emergent herbicidal activity, greenhouse; format: in vivo; settings: Table II, 4 WAT, 0.28 kg/h

Example entries and their recorded answers appear below.
molecule="CC(C#N)OP(=O)(O)CNCC(=O)OCCCl (stereo not shown)" measured_attribute="post-emergent herbicidal activity index" recorded_value="1 (25-49% control)"
molecule="CC(C#N)OP(=O)(O)CNCC(=O)OCc1ccccc1 (stereo not shown)" measured_attribute="post-emergent herbicidal activity index" recorded_value="1 (25-49% control)"
molecule="CCOC(=O)CNCP(=O)(OC(C)C#N)OC(C)C#N (stereo not shown)" measured_attribute="post-emergent herbicidal activity index" recorded_value="0 (0-24% control)"
molecule="CCCCCOC(=O)CNCP(=O)(O)OC(C)C#N (stereo not shown) [Example 6, hemihydrate]" measured_attribute="post-emergent herbicidal activity index" recorded_value="1 (25-49% control)"
molecule="CCOCCOC(=O)CNCP(=O)(O)OC(C)C#N (stereo not shown)" measured_attribute="post-emergent herbicidal activity index" recorded_value="1 (25-49% control)"
molecule="CCOC(=O)CNCP(=O)(O)OC(C)C#N (stereo not shown)" measured_attribute="post-emergent herbicidal activity index" recorded_value="1 (25-49% control)"

Read the next record carefully.
Query :: Need post-emergent herbicidal activity index, item CCOC(=O)CNCP(=O)(O)OCC(Cl)(Cl)Cl
Result :: 2 (50-74% control)

---

system: Crabgrass; test: post-emergent herbicidal activity, greenhouse; assay type: in vivo; conditions: Table II, 2 WAT, 1.12 kg/h
measured_attribute: post-emergent herbicidal activity index

molecule="CCOC(=O)CNCP(=O)(OCC1COC(C)(C)O1)OCC1COC(C)(C)O1 (stereo not shown)" measured_attribute="post-emergent herbicidal activity index" recorded_value="1 (25-49% control)"
molecule=CCOC(=O)CNCP(=O)(OCC(=O)OCC)OCC(=O)OCC measured_attribute="post-emergent herbicidal activity index" recorded_value="0 (0-24% control)"
molecule="CCOC(=O)CNCP(=O)(O)OC(C)C(=O)OC (stereo not shown)" measured_attribute="post-emergent herbicidal activity index" recorded_value="2 (50-74% control)"

Read the next record carefully.
Query :: Record lookup: for Crabgrass, what post-emergent herbicidal activity index belongs to CCOC(=O)CNCP(=O)(OC(C)CC(=O)OCC)OC(C)CC(=O)OCC (stereo not shown) ?
Result :: 0 (0-24% control)

---

Please go through the items and note down their post-emergent herbicidal activity index.
Test system: Downy Brome
Assay: post-emergent herbicidal activity, greenhouse
Assay type: in vivo
Conditions: Table I, 4 WAT, 5.6 kg/h
Text: A good grade of top soil is placed in aluminum pans having holes in the bottom and compacted to a depth of 0.95 to 1.27 cm. from the top of the pan. […] The pans are returned to the greenhouse and watered as before and the injury to the plants as compared to the control is observed at approximately two and four weeks as indicated in the tables under WAT and the results recorded. […]

molecule="CCOC(=O)CNCP(=O)(O)OC(C)C(=O)OC (centres unmarked)" recorded_value="1 (25-49% control)"
molecule="CCOC(=O)CNCP(=O)(OC(C)C#N)OC(C)C#N (centres unmarked)" recorded_value="3 (75-99% control)"
molecule="CCOC(=O)CNCP(=O)(O)OC(C)CC(=O)OCC (centres unmarked)" recorded_value="0 (0-24% control)"

Give one value of post-emergent herbicidal activity index per listed molecule.
1. CC(C#N)OP(=O)(O)CNCC(=O)OCCCl (centres unmarked)
2. CCOC(=O)CNCP(=O)(OC(C)C(=O)OCC)OC(C)C(=O)OCC (centres unmarked)

Result ::
2 (50-74% control)
0 (0-24% control)

---

tested on: Smartweed; test: post-emergent herbicidal activity, greenhouse; assay type: in vivo; conditions: Table I, 2 WAT, 11.2 kg/h
measured_attribute: post-emergent herbicidal activity index

Example entries and their recorded answers appear below.
compound="C#CCNCP(=O)(OC(C)C#N)OC(C)C#N (stereo not shown)" recorded_value="1 (25-49% control)"
compound="CC(C#N)OP(=O)(CNC(C)(C)C)OC(C)C#N (stereo not shown)" recorded_value="1 (25-49% control)"
compound=CCOC(=O)CNCP(=O)(OCC(=O)OCC)OCC(=O)OCC recorded_value="0 (0-24% control)"

Query :: Need post-emergent herbicidal activity index, item CCOC(=O)CNCP(=O)(OC(CC(=O)OCC)C(=O)OCC)OC(CC(=O)OCC)C(=O)OCC (stereo not shown)
Result :: 0 (0-24% control)
